tgt: iNOS (Mus musculus, UniProt P29477)
experimentalDetails: Ferric difference spectral binding assay
Set-up: species or system murine
condition: read-out: Ks (spectral binding constant), unit printed in cell/text as mM
measurementKind: Kd

Exam item: # input compound: CN(CCC[C@H](N)C(=O)O)C(=N)NO [MHA, N^δ-methyl- N^ω-hydroxy-L-arginine] ; wanted: its Kd
Marked response: > 10 mM

* * *

Property: kcat; scope: individual molecules
tgt: murine iNOS (Mus musculus)
experimentalDetails: NO production, hemoglobin capture assay
Type: biochemical
Numbers only here, please. The scale is s⁻¹.

>>> observedmeasurement("CONC(=N)NCCC[C@H](N)C(=O)O")
0.0783

Exam item: # input molecule: CN(O)C(=N)NCCC[C@H](N)C(=O)O [NHMA, N^ω-hydroxy-N^ω-methyl-L-arginine] ; wanted: its kcat
Marked response: 0.015

Exam item: Entry to check: CC(C)(C)ONC(=N)NCCC[C@H](N)C(=O)O
Marked response: 0.005

Exam item: Entry to check: N=C(NO)NCCC[C@H](N)C(=O)O [NHA, N^ω-hydroxy-L-arginine, reference compound]
Marked response: 0.267
